- Test system: NCI
- TEST DESCRIPTION: Antitumor activity against human NCI leukemia cell line panel
- Assay type: functional, cell-based
Measured pIC50 values are reported for all entries that follow.
# pIC50: negative log10 of molar concentration; output just the value

Below, each entry is followed by its recorded pIC50 result.
CN(/N=N/c1nc(OCc2ccccc2)c2nc[nH]c2n1)C(=O)N(C)/N=N/c1nc(OCc2ccccc2)c2nc[nH]c2n1	4.26
Cn1nnc2c(C(N)=O)ncn2c1=O [TEMOZOLOMIDE]	4.10

// next entry
Inquiry: Look up pIC50 for this compound: CN(/N=N/c1nc(OCc2ccccc2)c2nc[nH]c2n1)C(=O)Oc1ccc([N+](=O)[O-])cc1
Reply text: 4.85

----------
- System: SF-268
- TEST DESCRIPTION: Antitumor activity against human SF268 cells at 100 uM relative to control
- Type: functional
Assign fulfilled whenever Activity does not fall below 80%; assign not fulfilled whenever it does.

Consider the following illustrative entries.
CN(/N=N/c1nc(OCc2ccccc2)c2nc[nH]c2n1)C(=O)N(C)/N=N/c1nc(OCc2ccccc2)c2nc[nH]c2n1	not fulfilled
CN(/N=N/c1nc(OCc2ccccc2)c2nc[nH]c2n1)C(=O)Oc1ccccc1	fulfilled

Now consider a different compound.
Inquiry: Dear colleague, could you confirm whether CCOC(=O)N(C)/N=N/c1nc(OCc2ccccc2)c2nc[nH]c2n1 has Activity at or above 80%?
Reply text: fulfilled

----------
Measured half-life values are reported for all entries that follow.
- TEST DESCRIPTION: Half life of hydrolysis in deuterated phosphate buffer at pD 7.8
- TEST CONTEXT: deuterated phosphate buffer, pH 7.8
Number only, in h; omit the unit.

Below, each entry is followed by its recorded half-life result.
CN(/N=N/c1nc(OCc2ccccc2)c2nc[nH]c2n1)C(=O)N(C)/N=N/c1nc(OCc2ccccc2)c2nc[nH]c2n1	7.17
COC(=O)c1ccc(OC(=O)N(C)/N=N/c2nc(OCc3ccccc3)c3nc[nH]c3n2)cc1	2.45
CCOC(=O)N(C)/N=N/c1nc(OCc2ccccc2)c2nc[nH]c2n1	58.3
CN(/N=N/c1nc(OCc2ccccc2)c2nc[nH]c2n1)C(=O)Oc1ccc(S(N)(=O)=O)cc1	2.82
CC(=O)N(C)/N=N/c1nc(OCc2ccccc2)c2nc[nH]c2n1	58.3
CN(/N=N/c1nc(OCc2ccccc2)c2nc[nH]c2n1)C(=O)Oc1ccccc1	19.2
CN(/N=N/c1nc(OCc2ccccc2)c2nc[nH]c2n1)C(=O)c1cccnc1	8.83
CN(/N=N/c1nc(OCc2ccccc2)c2nc[nH]c2n1)C(=O)Oc1ccc(C(N)=O)cc1	6.42
CN(/N=N/c1nc(OCc2ccccc2)c2nc[nH]c2n1)C(=O)Oc1ccc([N+](=O)[O-])cc1	0.383
CN(/N=N/c1nc(OCc2ccccc2)c2nc[nH]c2n1)C(=O)c1ccc([N+](=O)[O-])cc1	16

Inquiry: Look up half-life for this molecule: CC(=O)Nc1ccc(OC(=O)N(C)/N=N/c2nc(OCc3ccccc3)c3nc[nH]c3n2)cc1
Reply text: 19.3

Inquiry: Look up half-life for this molecule: CN(/N=N/c1nc(OCc2ccccc2)c2nc[nH]c2n1)C(=O)c1ccccc1
Reply text: 38.3
